Where a name gives a salt, the structure may show the parent alone.

COMPOUND | melting point
CCC(=O)N(CC1CCNCC1)c1ccc(Cl)cn1 (as salt: trifluoroacetic acid salt) | 134 to 136 °C
CCC(=O)N(CC1CCNCC1)c1ccc2cc(OC)ccc2c1.O=C(O)C(F)(F)F | 168 to 170 °C
CCC(=O)N(CC1CCNCC1)c1ccccn1 (as salt: trifluoroacetic acid salt) | 108 to 110 °C
CCC(=O)N(CC1CCNCC1)c1ccc2cc(OCc3ccccc3)ccc2c1.O=C(O)C(F)(F)F | 151 to 153 °C
CCC(=O)N(CC1CCNCC1)c1cccc(Cl)c1 (as salt: salt) | 94 to 96 °C
CCC(=O)N(CC1CCNCC1)c1ccccc1 (as salt: trifluoroacetic acid salt) | 98 to 100 °C
CC(=O)N(CC1CCNCC1)c1ccc(Cl)c(Cl)c1 (as salt: trifluoroacetic acid salt) | 172 to 174 °C
COCC(=O)N(CC1CCNCC1)c1ccc(Cl)c(Cl)c1 (as salt: salt) | 115 to 117 °C
